test: qHTS for Inhibitors of human tyrosyl-DNA phosphodiesterase 1 (TDP1): qHTS in cells in presence of CPT; settings: chicken DT40 Tdp1-/-;hTDP1 cells + 20 nM CPT, ATP luminescence, 48 h; series mostly up to 46.2 µM; further: nearly all actives have a fitted effect of over 55% in size
Screen size: about 420,000 compounds; about 50,000 (12%) were called active. Not shown: some 26% with an inconclusive outcome. The call rests on the fitted dose curve; in most records, active means well fitted inhibition curve with a large enough effect; inconclusive means small, poorly fitted or top-dose-only effect; inactive means flat fitted curve, though single readings scatter. The list comes from a sample in which actives are over-represented; it also holds close analogues and randomly drawn compounds.
Labels: yes = active, no = inactive

O=C(Cn1ccc2cc(S(=O)(=O)N3CCCC3)ccc21)NCc1ccccc1    no
COc1ccc(Cn2ccn(Cc3cccc(OC)c3)c(=O)c2=O)cc1    no
Cc1ccc(C(=O)Nc2nc(N)n(-c3ccccc3)n2)cc1    no
CSc1ccc(CCNC(=O)CS(=O)(=O)Cc2nc(-c3ccccc3F)oc2C)cc1    no
Cc1ccccc1-c1nc(CS(=O)(=O)CC(=O)NC(C)c2ccccc2)c(C)o1 (stereo not given)    yes
Cc1ccc(-c2nn3c(=O)cc(CN4CCN(S(=O)(=O)c5ccc(Cl)cc5)CC4)nc3s2)cc1    no
CC(NC(=S)Nc1ccccc1)C(c1cccs1)N1CCOCC1 (stereo not given)    no
CCc1cccc(-n2nnc(-c3nsc(NC(=O)c4ccc(C)cc4)n3)c2C)c1    yes
CCCC(c1nnnn1C(C)(C)C)N1CCN(Cc2ccccc2)CC1 (stereo not given)    no
CC(NC(=O)Nc1ccccc1)C(c1cccs1)N1CCN(c2ccccc2)CC1 (stereo not given)    yes

----------
experiment: qHTS for Inhibitors of human tyrosyl-DNA phosphodiesterase 1 (TDP1): qHTS in cells in presence of CPT; conditions: chicken DT40 Tdp1-/-;hTDP1 cells + 20 nM CPT, ATP luminescence, 48 h; series mostly up to 46.2 µM; further: nearly all actives have a fitted effect of over 55% in size
In all, about 420,000 compounds went through this assay and about 50,000 (12%) were called active. Inconclusive results (about 26%) are left out. Calls follow the shape of the dose curve; as a rule, active = well fitted inhibition curve with a large enough effect; inconclusive = small, poorly fitted or top-dose-only effect; inactive = flat fitted curve, though single readings scatter. The entries come from a sample that favours actives as a whole.
Labels: y = active, n = inactive

Nc1c(-c2ccccc2)nnn1Cc1ccccc1    n
Cc1nn(C)cc1C(=O)c1ccccc1    n
CCc1ccc2c(c1)C1(NN=C(c3ccccc3)S1)C(=O)N2 (stereo unspecified)    y
CCCCc1ccc(S(=O)(=O)NC(=O)C2(C)CCN2C(=O)c2ccccc2)cc1 (stereo unspecified)    n
O=C(CN1CCCSc2ccccc21)N1CCN(S(=O)(=O)c2cccc(F)c2)CC1    y
CN(C(=O)CN1C(=O)CCSc2ccc(S(=O)(=O)N3CCCC3)cc21)c1ccccc1    n

----------
assay: qHTS for Inhibitors of human tyrosyl-DNA phosphodiesterase 1 (TDP1): qHTS in cells in presence of CPT; details: chicken DT40 Tdp1-/-;hTDP1 cells + 20 nM CPT, ATP luminescence, 48 h; series mostly up to 46.2 µM; further: nearly all actives have a fitted effect of over 55% in size
Out of some 420,000 compounds screened, about 50,000 (12%) were called active. About 26% were inconclusive and are not listed. Calls follow the shape of the dose curve; as a rule, active = well fitted inhibition curve with a large enough effect; inconclusive = small, poorly fitted or top-dose-only effect; inactive = flat fitted curve, though single readings scatter. Only a selection was taken, and actives are over-represented in it overall.
Labels: t (active), f (inactive)

O=C(CCl)N(Cc1cccc([N+](=O)[O-])c1)c1cccc(Cl)c1    t
O=C(NCC(=O)N(CC1CCCO1)C(C(=O)NC1CCCCC1)c1ccccc1)c1ccco1 (stereo unspecified)    f
COc1ccc(-c2nc3sc(CCNC(=O)C(C)(C)C)c(C)n3n2)cc1    t
O=C(NCc1ccc2c(c1)OCO2)c1ccc2c(c1)C(=O)N(CC1CCCO1)C2=O (stereo unspecified)    f
N#Cc1ccc(-c2cccs2)nc1SCc1ccc(Br)cc1    f
COc1ccc(NC(=O)COC(=O)C2COc3ccccc3O2)cc1 (stereo unspecified)    f
O=C(O)CCC(=O)Nc1ccc(OCC2CCCO2)cc1 (stereo unspecified)    f
CCOc1ccc(OCC(=O)OC(C)C(=O)NC2CCCCC2C)cc1 (stereo unspecified)    f
COc1ccc2nc(N3C(=O)C(O)=C(C(=O)c4ccco4)C3c3ccco3)sc2c1 (stereo unspecified)    f
CC(C)CCNC(=O)c1[nH]c(C(F)(F)F)nc1-c1ccccc1    f
CCOc1ccc2nc(NCCNC(=O)C(C)(C)C)c(C)cc2c1    f
CCOC(=O)C1=C(c2ccccc2)O/C(=C(/C(=O)OC)C(F)(F)F)S1    f
COc1cc(CNC(=O)c2cc3n(n2)CCCN(Cc2cccc(F)c2)C3=O)cc(OC)c1OC    t
Cc1c(CCNC(=O)c2ccc(C(F)(F)F)cc2)sc2nc(-c3ccc(F)cc3)nn12    f
O=C(Nc1cccc([N+](=O)[O-])c1)Nc1ccc(Cl)cn1    f
COc1ccc(C(=O)NC(Cc2ccc(OC(=O)c3ccc(OC)cc3)cc2)C(=O)O)cc1 (stereo unspecified)    f
CCOCCCNC(=O)c1ccc(CS(=O)(=O)c2cccc(C(F)(F)F)c2)o1    f
Cc1ccc(S(=O)(=O)N(Cc2cccc([N+](=O)[O-])c2)C(=O)N2CCN(C)CC2)cc1    f
Cc1ccc(NC(=O)CSc2sc3c(O)cc(=O)[nH]c3c2C#N)cc1C    f
Cc1c(C)n2c(SCC(=O)NC3CCCC3)nnc2[nH]c1=O    f
CCOC(=O)C1=C(c2ccccc2)NC(=S)NC1c1ccc(Cl)cc1 (stereo unspecified)    f

----------
assay: qHTS for Inhibitors of human tyrosyl-DNA phosphodiesterase 1 (TDP1): qHTS in cells in presence of CPT; conditions: chicken DT40 Tdp1-/-;hTDP1 cells + 20 nM CPT, ATP luminescence, 48 h; series mostly up to 46.2 µM; further: nearly all actives have a fitted effect of over 55% in size
Out of some 420,000 compounds screened, about 50,000 (12%) were called active. Inconclusive results (about 26%) are left out. Calls follow the shape of the dose curve; as a rule, active = well fitted inhibition curve with a large enough effect; inconclusive = small, poorly fitted or top-dose-only effect; inactive = flat fitted curve, though single readings scatter. The sample as a whole holds a higher share of actives than the screen did.
Labels: active, inactive

Nc1nnc(SCC(=O)OCc2ccc(Cl)c(Cl)c2)s1    inactive
O=S(=O)(NCCS(=O)(=O)N1CCN(c2ccccc2)CC1)c1ccc(Cl)cc1    inactive
COc1cc(C(CC(=O)NCCC(C)C)N2Cc3ccccc3C2=O)cc(OC)c1OC (configuration not stated)    inactive
Fc1ccc(COc2ccc(-c3nnco3)cc2)cc1    inactive
Cn1cc(S(=O)(=O)N2CCN(c3ccc(F)cc3)CC2)c(=O)n(C)c1=O    inactive
O=C1CN(C(=O)c2cc(F)cc(F)c2)c2ccccc2N1    inactive
O=C(CN1CCN(Cc2ccc(Cl)cc2)C1=O)NCc1ccc(F)cc1    inactive
O=C(CC(c1cccs1)N1Cc2ccccc2C1=O)Nc1ccc(F)cc1F (configuration not stated)    active
CCc1ccccc1OCCSc1nc(-c2cccs2)nc2cc(=O)[nH]n12    inactive
Cc1ccc2nc(NC(=O)C3CSC4(C)CCC(=O)N34)sc2c1 (configuration not stated)    inactive
CC(=O)c1c(C)n(-c2ccc(N(C)C)cc2)c2ccc(OCC(N)=O)cc12    active
CCCCOC(=O)CSc1ncnc2sc3c(c12)CCC(C)C3 (configuration not stated)    inactive
Cn1cnc(S(=O)(=O)N2C[C@@H](O)COC[C@@H]3O[C@H](CC(=O)NC4CCC4)CC[C@H]32)c1    inactive
Cc1cccc(-c2nc(SCc3ccc(Br)cc3)n3[nH]c(=O)cc3n2)c1    active
COc1ccc2c(CC(=O)OCC(=O)NC(N)=O)coc2c1    inactive
O=C(Nc1ccc2c(c1)OCO2)c1ccc(N2C(=O)c3ccccc3C2=O)cc1    inactive
COc1ccc(C2c3ccc(O)cc3Oc3ncn(CCCO)c(=N)c32)cc1OC (configuration not stated)    inactive
Cc1ccccc1NC(=O)Cn1c(=O)n(CC2CCCO2)c(=O)c2ccccc21 (configuration not stated)    inactive
CCN1C(=O)c2cccc3c(N)ccc1c23    active
Cc1nn(C)cc1N1C(=O)c2cccc3c(N)ccc(c23)C1=O    inactive
O=C(O)CSc1ccc(S(=O)(=O)N2CCCC2)cn1    inactive
CC(C)N=C1CCCC1C(=S)SSC(=S)C1CCCC1=NC(C)C (configuration not stated)    active

----------
assay: qHTS for Inhibitors of human tyrosyl-DNA phosphodiesterase 1 (TDP1): qHTS in cells in presence of CPT; conditions: chicken DT40 Tdp1-/-;hTDP1 cells + 20 nM CPT, ATP luminescence, 48 h; series mostly up to 46.2 µM; further: nearly all actives have a fitted effect of over 55% in size
Among all 420,000 compounds or so, about 50,000 (12%) were called active. Inconclusive results (about 26%) are left out. Calls come from the whole dose curve; as a rule, active = well fitted inhibition curve with a large enough effect; inconclusive = small, poorly fitted or top-dose-only effect; inactive = flat fitted curve, though single readings scatter. The list comes from a sample in which actives are over-represented; it also holds close analogues and randomly drawn compounds.
Labels: active, inactive

COc1cccc(CNC(=O)CCCC(=O)Nc2cccc([N+](=O)[O-])c2)c1    inactive
O=C(Nc1ccc2c(c1)OCCO2)C1CCCC1    inactive
COc1ccc(-c2cc(C(F)(F)F)nc(S(C)(=O)=O)n2)cc1OC    active
Cc1ccc(C)c(-n2c(SCC(=O)O)nc3sc4c(c3c2=O)CCCC4)c1    inactive
CC(C)(C)CC(=O)Nc1nc(C(N)Cc2ccc(C(F)(F)F)cc2)cs1 (stereo not drawn)    active
COc1ccc2sc(-c3ccc(N(C)C)cc3)c(-c3ccc4cc[nH]c4c3)c2c1    inactive
CC(C)(C)CC(=O)Nc1nnc(SCC(=O)NCc2cccs2)s1    inactive
COc1ccc2c(c1)c(=Cc1ccc(N(C)C)cc1)c1cc(-c3ccccc3)[n+](C)n12    active
CNS(=O)(=O)c1ccc2c(c1)[nH]c(=S)n2C    inactive
CCN(CC)c1ccc(/C=N/Nc2nc(C)cc(C)n2)c(O)c1    active
COC(=O)[C@H](Cc1ccccc1)NC(=O)Nc1ccc(OC)cc1    inactive
CN(Cc1ccccc1)C(=O)C(=O)c1cn(CC(=O)N2CCCC2)c2ccccc12    inactive
COc1ccc(-c2cc(C(=O)NCCCN3CCCC3=O)c3ccccc3n2)cc1OC    inactive
NC(c1csc(NC(=O)Nc2cccc(C(F)(F)F)c2)n1)C1CCCCC1 (stereo not drawn)    active
COc1ccc(CN2C(=O)C(CC(=O)NCc3cccc4ccccc34)CC(C(=O)N3CCOCC3)=C2C)cc1 (stereo not drawn)    inactive
CN(C)c1ccc(/C=c2\[nH]c(=O)/c(=C/c3ccc(N(C)C)cc3)[nH]c2=O)cc1    inactive
COc1cc(Cl)c(NC(=O)CC(C)S(=O)(=O)c2cc3c(cc2C)NC(=O)CO3)c(OC)c1 (stereo not drawn)    inactive
Cc1cccc(N2CCN(C(=O)c3ccccc3NC(=O)C3CCCCC3C(=O)O)CC2)c1 (stereo not drawn)    inactive
OCCc1ccc(NCCc2ccco2)cc1    inactive
COCCNc1ncnc2c1ncn2[C@H]1CN(Cc2ccc(OC)cc2)C[C@@H](CO)O1    inactive
COc1ccc(-c2oc3ncnc(NCCCO)c3c2-c2ccc(OC)cc2)cc1    active
Cc1ccc(NC(=O)Nc2cccc(C(F)(F)F)c2)nc1    inactive
COc1cc(SC)ccc1C(=O)NCCOc1ccccc1Cl    inactive
COc1ccc(CN(C)C(=O)Cc2ccsc2)c(OC)c1OC    inactive
O=C(Cc1ccc(Br)cc1)NCCN1CCOCC1    inactive
O=C(NCCCCCCCCCNC(=O)C(F)(F)F)C(F)(F)F    inactive
COc1cc(CCN=Cc2ccccc2O)c([N+](=O)[O-])cc1OC    inactive
O=[N+]([O-])c1ccccc1SNc1ccccn1    active
COc1ccc(C(N)c2csc(NC(=O)Nc3cccc(C(F)(F)F)c3)n2)cc1 (stereo not drawn)    active
Cc1cccc(N2CCN(c3ccc(C(=O)O)cc3NC(=O)c3ccccc3F)CC2C)c1 (stereo not drawn)    active
CCCc1nnc(SCC(=O)N2C(C)CCCC2C)n1CC (stereo not drawn)    inactive
CCN(CC)c1ccc(/C=N/NC(=O)c2cnccn2)c(O)c1    active
COc1ccc(NC(=O)CN(C)CC(=O)Nc2cccc(C(F)(F)F)c2)cc1    inactive
COc1ccc(-c2cc(C(=O)N(C)Cc3ccc(OC)c(OC)c3OC)c3ccccc3n2)cc1OC    active
COc1ccc(NC(=O)Cn2ncn3c(cc4ccccc43)c2=O)c(OC)c1OC    inactive
Cc1cc(O)c(Sc2ccccc2)c(=O)o1    inactive
Cc1cc(C)n(CCNCc2c(C(=O)N3C[C@@H](C)O[C@@H](C)C3)nc3ccc(Cl)cn23)n1    inactive
CCN(CC)c1ccc(C(=O)Nn2c(C)nc3ccccc3c2=O)cc1    inactive
Cc1ccc(C(=O)NCCNC(=O)c2cnccn2)cc1    inactive
CO[C@H]1[C@@H](O)[C@H](N)[C@@H](O[C@H]2O[C@H]([C@H](C)N)CC[C@H]2N)[C@H](O)[C@@H]1N(C)C(=O)CN    inactive
COc1ccc(C(CC(=O)Nc2ccc(C)cc2)NC(=O)C(F)(F)F)cc1 (stereo not drawn)    inactive
COC(=O)c1cc(NC(=O)c2cccnc2)ccc1N1CCOCC1    inactive
COc1ccc(-c2cc(C(=O)N(C)CC(=O)Nc3ccccc3Cl)c3ccccc3n2)cc1OC    active
